# Species on record: Mus musculus
# method.notes: Radioactivity uptake in the spleen was expressed as a percentage of the injected radioactive dose per gram of tissue (% ID/g) in B16/F1 Murine Melanoma-Bearing C57 Mice at 0.5 h
# Assay type: functional, organism-based
Kindly state ID/g for each of the entries shown.
Please format your answer as a value with the unit trailing.

Record summary for DOTA-ReCCEHdFRWCKPVD-OH : reported ID/g = 0.29%

Per the records, this substance ( DOTA-ReCCEHdFRWCKPV-OH ) has ID/g equal to 0.4%

Note to self: ID/g recorded for DOTA-ReCCEHdFRWCRPV-NH2 was 0.78%

The substance listed as DOTA-ReCCEHdFRWCKPV-NH2 shows ID/g equal to 0.59%

Item: Ac-Lys(DOTA)-ReCCEHdFRWCKPV-NH2 | ID/g: 0.51%
